Assay read-out pKi; system under study: human CB2 receptor (CB2R) (Homo sapiens).
pKi: −log10 of the molar value.
PROPERTY_NAME: pKi

{"columns": ["MOLECULE", "VALUE_REPORTED"],
 "data": [
  ["CC(C)c1ccccc1N=C1SCC(C)(C)CN1C(=S)SCC(=O)OC(C)(C)C [Compound I-14]", 8.70],
  ["CCC1(CC)CSC(=Nc2ccccc2C(C)C)N(C(=S)SCC(=O)OC(C)C)C1 [Compound I-41]", 9.00],
  ["C=CCSC(=S)N1CC2(CCOCC2)CSC1=Nc1ccccc1C(C)C [Compound I-92]", 8.22],
  ["C=CCSC(=S)N1CC(CC)(CC)CSC1=Nc1ccccc1C(C)C [Compound I-39]", 8.70],
  ["C=CCSC(=S)N1CC2(CCCC2)CSC1=Nc1ccccc1C(C)C [Compound I-74]", 8.92]
]}

* * *

Target: human CB2R (Homo sapiens)
Construct: The coding region of human CB2R cDNA (Munro etc, Nature, 1993, 365, 61-65) was inserted
Sequence (P34972 whole entry): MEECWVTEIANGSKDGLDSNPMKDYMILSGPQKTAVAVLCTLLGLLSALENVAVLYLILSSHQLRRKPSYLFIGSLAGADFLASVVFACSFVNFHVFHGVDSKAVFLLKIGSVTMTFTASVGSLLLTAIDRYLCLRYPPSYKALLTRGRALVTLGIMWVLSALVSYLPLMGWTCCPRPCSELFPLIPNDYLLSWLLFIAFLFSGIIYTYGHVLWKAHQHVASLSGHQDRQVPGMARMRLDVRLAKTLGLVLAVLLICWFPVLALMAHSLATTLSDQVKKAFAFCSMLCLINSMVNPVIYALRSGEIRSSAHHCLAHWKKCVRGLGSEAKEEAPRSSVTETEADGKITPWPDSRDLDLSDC
Experiment: CB2R-mediated suppression of forskolin-stimulated cAMP synthesis in CHO cells expressing human CB2R
pIC50: −log10 of the molar value.
Some compounds, each annotated with its measured pIC50.

{"columns": ["COMPOUND", "COMPARISON_OPERATOR", "pIC50"],
 "data": [
  ["C=CCCSC(=S)N1CC(CC)(CC)CSC1=Nc1ccccc1C(C)C", "=", 8.27],
  ["CSC(=S)N1CC2(CCOCC2)CSC1=Nc1ccccc1C(C)C", "=", 9.22],
  ["C=CCSC(=S)N1CC(CC)(CC)CSC1=Nc1ccccc1C(C)C", "=", 7.86],
  ["C=CCSC(=S)N1CC(CC)(CC)CSC1=Nc1ccccc1C(C)CC (stereo not drawn)", "=", 8.66],
  ["C=CCSC(=S)N1CC2(CCOCC2)CSC1=Nc1ccccc1C(C)C", ">", 9.70],
  ["C=CCSC(=S)N1CC2(CCCC2)CSC1=Nc1ccccc1C(C)C", "=", 8.80]
]}

* * *

Target: human CB1 receptor (CB1R) (Homo sapiens)
Construct: expressed in transfected cells
Assay: Receptor binding assay of human CB1 receptor (CB1R), membranes of CB1R-expressing CHO cells
pKi: −log10 of the molar value.
Decision: pKi compared against 6; not below it gives True, below it gives False.

{"columns": ["CHEMICAL_SMILES", "GROUP"],
 "data": [
  ["CC(C)c1ccccc1N=C1SCC(C)(C)CN1C(=S)SCC(=O)OC(C)(C)C", "False"],
  ["CCC1(CC)CSC(=Nc2ccccc2C(C)C)N(C(=S)SCC(=O)OC(C)(C)C)C1", "False"],
  ["CC=CCSC(=S)N1CC(CC)(CC)CSC1=Nc1ccccc1C(C)C", "True"],
  ["C=CCCSC(=S)N1CC(CC)(CC)CSC1=Nc1ccccc1C(C)C", "False"],
  ["CCC1(CC)CSC(=Nc2ccccc2C(C)C)N(C(=S)SCC=C(C)C)C1", "True"]
]}

* * *

Assay read-out Ki; system under study: human CB1 receptor (CB1R) (Homo sapiens, UniProt P21554).
Sequence (P21554 whole entry): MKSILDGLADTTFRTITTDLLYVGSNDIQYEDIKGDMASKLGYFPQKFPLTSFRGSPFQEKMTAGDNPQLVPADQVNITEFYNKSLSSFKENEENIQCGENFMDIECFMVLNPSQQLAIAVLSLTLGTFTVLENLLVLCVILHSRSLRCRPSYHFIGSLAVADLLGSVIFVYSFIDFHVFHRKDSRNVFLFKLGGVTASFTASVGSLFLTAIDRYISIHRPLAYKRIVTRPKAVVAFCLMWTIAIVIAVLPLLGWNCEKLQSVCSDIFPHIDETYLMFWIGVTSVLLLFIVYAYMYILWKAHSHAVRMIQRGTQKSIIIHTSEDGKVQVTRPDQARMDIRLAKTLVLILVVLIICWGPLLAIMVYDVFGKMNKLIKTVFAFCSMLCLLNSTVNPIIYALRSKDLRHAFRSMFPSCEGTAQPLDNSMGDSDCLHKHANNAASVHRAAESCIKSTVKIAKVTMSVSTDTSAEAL
PROPERTY_NAME: Ki (µM)

{"columns": ["MOLECULE", "UNIT_DESCRIPTOR", "COMPARISON_OPERATOR", "VALUE_REPORTED"],
 "data": [
  ["C=CCSC(=S)N1CC(CC)(CC)CSC1=Nc1ccccc1C(C)CC (centres unmarked)", "µM", "=", 1.12],
  ["CSC(=S)N1CC2(CCOCC2)CSC1=Nc1ccccc1C(C)C", "µM", "=", 1.54],
  ["Cc1cc(CSC(=S)N2CC3(CCCC3)CSC2=Nc2ccccc2C(C)C)on1", "µM", "=", 1.02],
  ["C=CCSC(=S)N1CC2(CCOCC2)CSC1=Nc1ccccc1C(C)C", "µM", "=", 1.31],
  ["COc1ccccc1N=C1SCC2(CCCC2)CN1C(=S)SCC(=O)OC(C)(C)C", "µM", ">", 5]
]}

* * *

Target: human CB2 receptor (CB2R) (Homo sapiens, UniProt P34972)
pKi: −log10 of the molar value.
Some molecules, each annotated with its measured pKi.

{"columns": ["MOLECULE", "pKi"],
 "data": [
  ["CCC1(CC)CSC(=Nc2ccccc2C(C)C)N(C(=S)SCC=C(C)C)C1", 8.92],
  ["CC=CCSC(=S)N1CC(CC)(CC)CSC1=Nc1ccccc1C(C)C", 8.96],
  ["CSC(=S)N1CC2(CCOCC2)CSC1=Nc1ccccc1C(C)C", 8.52],
  ["CCOC(=O)CSC(=S)N1CC(CC)(CC)CSC1=Nc1ccccc1C(C)C", 9.30],
  ["C=CCSC(=S)N1CC(CC)(CC)CSC1=Nc1ccccc1C(C)CC (stereo not drawn)", 8.54],
  ["CC(C)OC(=O)CSC(=S)N1CC(C)(C)CSC1=Nc1ccccc1C(C)C", 8.22],
  ["COc1ccccc1N=C1SCC2(CCCC2)CN1C(=S)SCC(=O)OC(C)(C)C", 8.66],
  ["C=CCCSC(=S)N1CC(CC)(CC)CSC1=Nc1ccccc1C(C)C", 8.70],
  ["CCC1(CC)CSC(=Nc2ccccc2C(C)C)N(C(=S)SCC(=O)OC(C)(C)C)C1", 9.52]
]}

* * *

{"columns": ["CHEMICAL_SMILES", "melting point"],
 "data": [
  ["C=CCSC(=S)N1CC2(CCOCC2)CSC1=Nc1ccccc1C(C)C", "73.5 to 75 °C"],
  ["CC(C)OC(=O)CSC(=S)N1CC(C)(C)CSC1=Nc1ccccc1C(C)C", "95 to 96 °C"],
  ["CSC(=S)N1CC2(CCOCC2)CSC1=Nc1ccccc1C(C)C", "127 to 128 °C"],
  ["C=CCSC(=S)N1CC2(CCCCC2)CSC1=Nc1ccc(CC)cc1", "98 to 100 °C"]
]}
